So I've got a bunch of compounds here, and I need their growth values.
Test system: NCI-H226 lung
protocol: NCI-60 one-dose screen, 48 h (100 = growth as untreated, 0 = no growth, -100 = all killed)
cond: 10 µM unless noted
The panel holds about 83,000 compounds, 20% with a hit somewhere; the sample as a whole holds those more often.
Answers are plain numbers, in %.

In [3]: df
Out[3]:
                                   compound  observed_property  unit_abbrev   val
0  CN1C(=O)N(C)C2(c3ccccc3)N(CC(=O)Nc3ccccc3O)C(=O)NC12c1ccccc1 (stereo not given)             growth            %  90.7
1  FC(F)(F)Sc1ccc(/C=C/c2cc(/C=C/c3ccc(SC(F)(F)F)cc3)n(-c3ccccc3)n2)cc1             growth            %  89.5
2  CCN(CC)CC(=O)Nc1ccc2ncnc(Nc3ccc(Oc4cccc(F)c4)c(Cl)c3)c2c1             growth            %  87.6
3  CC(C)(C)c1cc(C(C)(C)c2ccccc2)cc(Cc2cc(C(C)(C)c3ccccc3)cc(C(C)(C)C)c2O)c1O             growth            %  90.9

QUERY: Please report the recorded growth for "CCOC(=O)c1c(-c2ccc(OC)cc2)c(C#N)c2c(C#N)c(N)nn2c1N" .
RESULT: 61.5
